system: Plasmodium berghei; assay: Screen against P. berghei liver stage (PbLuc), transformed with Luciferase, at 10uM; assay type: functional, HepG2; details: tested at 10 uM
The whole screen tested about 69,000 compounds, of which about 8,600 (12%) showed an effect of 50% or more. The list comes from a sample in which strong results are over-represented; it also holds close analogues and randomly drawn compounds.
Binary classification by INHIBITION, with 20% as an inclusive lower bound for class 1; all other cases are class 0.

A selection of reference data follows.
compound	target	class
CC(C)C(O)CNC(=O)CCCc1ccccn1 (stereo not given)	Plasmodium berghei	class 0
COc1ccc(COCC(O)CNC(=O)c2ccc(C#N)cc2)cc1 (stereo not given)	Plasmodium berghei	class 1
O=C(CCn1cccn1)N1C[C@H]2CC[C@@H](C1)N(Cc1ccccn1)C2=O	Plasmodium berghei	class 0
CNC(=O)CN1CCCC12CCN(C(=O)c1ccccc1F)CC2	Plasmodium berghei	class 0
COc1ccc(F)c(NCc2ccc(C(=O)N(C)C)[nH]2)c1	Plasmodium berghei	class 0

Let's switch to this compound now.
Decide: INHIBITION of CCn1cc(-c2n[nH]c(=O)n2-c2ccc(OC)c(OC)c2)c(C)n1 >= 20%? class 1

* * *

test system: Plasmodium berghei; test: Screen against P. berghei liver stage (PbLuc), transformed with Luciferase, at 10uM; type: functional, HepG2; details: tested at 10 uM
Hit rate of the full screen: of about 69,000 compounds, about 8,600 (12%) showed an effect of 50% or more. Many of the other results were omitted from the sample, so strong results are more common in it than they were.
# INHIBITION per record follows
# unit: % | format: bare number

compound	propertyName	valueReported
Cn1cnc(S(=O)(=O)N2CCCCc3ccccc32)c1	INHIBITION	-0.613
CNC(=O)C1(c2cnccn2)CCCN1C(=O)c1ccccc1 (stereo unspecified)	INHIBITION	35.2
c1cc(CCNc2ccc(CC3CCNC3)cn2)ccn1 (stereo unspecified)	INHIBITION	19.3

Report INHIBITION for COc1ccc(COCC(O)CNC(=O)c2ccc(C)c(F)c2)cc1 (stereo unspecified) please. 52.3

I have this compound here, COc1ccc(COCC(O)CNC(=O)c2cc(C)cc(C)c2)cc1 (stereo unspecified) , and I need its recorded INHIBITION. 17.7

// query INHIBITION value for entry CCC(=O)N1CCC(c2ncncc2C)CC1 21.1

* * *

The entries below are paired with their reported INHIBITION.
system: Plasmodium berghei; experiment: Screen against P. berghei liver stage (PbLuc), transformed with Luciferase, at 10uM; assay type: functional, HepG2; settings: tested at 10 uM
About 8,600 (12%) of roughly 69,000 compounds showed an effect of 50% or more. The list comes from a sample in which strong results are over-represented; it also holds close analogues and randomly drawn compounds.

recordSmiles	INHIBITION
CC(C)OCc1nn(C)c2c1CCN(Cc1ccco1)C2	-16.9%

# context switch: different molecule, same INHIBITION
State the recorded INHIBITION for this entry: CN(Cc1ccco1)C(=O)c1ccc(=O)n(C)c1 55.4%

* * *

tested on: Plasmodium berghei; experiment: Screen against P. berghei liver stage (PbLuc), transformed with Luciferase, at 10uM; type: functional, HepG2; details: tested at 10 uM
The campaign covered roughly 69,000 compounds. About 8,600 (12%) showed an effect of 50% or more. For the sample, strong results were picked, then their nearest neighbours and some compounds at random.
# label = 1 (yes) if INHIBITION < 30% else 0 (no)

molecule	class
CC(CN1CCOCC1)NC(=O)N1CCCC1 (centres undefined)	1 (yes)

Is 30% strictly greater than the molecule's reported INHIBITION? molecule: Cc1cc(NC(=O)c2nn(C3CCS(=O)(=O)C3)c3c2CCCC3)no1 (centres undefined) 1 (yes)

Strictly below 30%: is that where INHIBITION of O=C(Nc1ccccc1F)c1nn(C2CCS(=O)(=O)C2)c2c1CCCC2 (centres undefined) sits? 0 (no)

Lab note: INHIBITION threshold 30%. Does this molecule come in strictly under it? Cc1cccc(CNC(=O)c2cccnc2N)c1 0 (no)

Is the reported INHIBITION for Cc1cc(C(=O)N2CCCC(C(=O)c3nccn3C)C2)c(=O)[nH]c1C (centres undefined) strictly below 30%? 1 (yes)

Please determine if COC(=O)c1ccoc1CN(C)CC(=O)NC1CCS(=O)(=O)C1 (centres undefined) is below 30% in terms of INHIBITION. 1 (yes)

INHIBITION strictly < 30% for this molecule? COc1cccc(CNC(=O)c2cccnc2N)c1 1 (yes)

Take the molecule Cc1ccc(CN(Cc2nc3c(cnn3C)c(=O)[nH]2)C2CC2)o1 and say whether its INHIBITION is less than 30%. 1 (yes)

INHIBITION under 30%? Item: O=C(NCc1ccco1)c1nn(C2CCS(=O)(=O)C2)c2c1CCCC2 (centres undefined) 1 (yes)

Cited source: ChEMBL document CHEMBL4513216
